# System: Escherichia coli
# Assay Remarks: Antibacterial activity against Escherichia coli ATCC 35218 at 40 uM/ml after 24 hrs by kirby-bauer method
# Type: functional
# Condition Context: ATCC 35218, 24 h, read-out: IZ
Label Not satisfied if zone of inhibition at 40 µM falls below 10 mm; label Satisfied in every other case.

{"Compound": "CC1(C)S[C@@H]2[C@H](NC(=O)[C@H](N)c3ccccc3)C(=O)N2[C@H]1C(=O)O", "Group Label": "Satisfied"}
{"Compound": "COc1cc(/C=C/C(=O)C2=C(/C=C/c3ccc(O)c(OC)c3)NC(=S)NC2c2ccc(O)cc2)ccc1O (stereo unspecified)", "Group Label": "Satisfied"}
{"Compound": "COc1cc(/C=C/C(=O)C2=C(/C=C/c3ccc(O)c(OC)c3)NC(=O)NC2c2ccc(O)c(OC)c2)ccc1O (stereo unspecified)", "Group Label": "Satisfied"}
{"Compound": "COc1cc(/C=C/C(=O)C2=C(/C=C/c3ccc(O)c(OC)c3)NC(=O)NC2c2ccc(O)cc2)ccc1O (stereo unspecified)", "Group Label": "Satisfied"}
{"Compound": "COc1cc(/C=C/C(=O)C2=C(/C=C/c3ccc(O)c(OC)c3)NC(=S)NC2c2ccc(O)c(OC)c2)ccc1O (stereo unspecified)", "Group Label": "Not satisfied"}
{"Compound": "COc1cc(/C=C/C(=O)C2=C(/C=C/c3ccc(O)c(OC)c3)NC(=O)NC2c2ccccc2O)ccc1O (stereo unspecified)", "Group Label": "Satisfied"}
{"Compound": "COc1cc(/C=C/C(=O)C2=C(/C=C/c3ccc(O)c(OC)c3)NC(=O)NC2c2ccc([N+](=O)[O-])cc2)ccc1O (stereo unspecified)", "Group Label": "Satisfied"}
{"Compound": "COc1cc(/C=C/C(=O)C2=C(/C=C/c3ccc(O)c(OC)c3)NC(=O)NC2c2ccc(Cl)cc2)ccc1O (stereo unspecified)", "Group Label": "Satisfied"}
{"Compound": "COc1ccc(C2NC(=S)NC(/C=C/c3ccc(O)c(OC)c3)=C2C(=O)/C=C/c2ccc(O)c(OC)c2)cc1 (stereo unspecified)", "Group Label": "Not satisfied"}
{"Compound": "COc1cc(/C=C/C(=O)C2=C(/C=C/c3ccc(O)c(OC)c3)NC(=S)NC2c2ccc(Cl)cc2)ccc1O (stereo unspecified)", "Group Label": "Not satisfied"}
{"Compound": "COc1cc(/C=C/C(=O)C2=C(/C=C/c3ccc(O)c(OC)c3)NC(=S)NC2c2ccccc2)ccc1O (stereo unspecified)", "Group Label": "Satisfied"}
